Catalogue of melting point readings, one per entry.

| compound | melting point |
| --- | --- |
| Cc1ccc(C(=O)Cc2nnnn2C)c(N)c1 | 155 to 156 °C |
| S=C(Cc1ccc(Oc2ccc(I)cc2)cc1)N1CCOCC1 | 123 to 127 °C |
| Oc1ccc2c(-c3cc(F)ccc3F)noc2c1Cl | 256 to 257 °C |
| O=c1[nH]c2cc(Cl)ccc2c(O)c1-c1ccc2ccccc2c1 | > 350 °C |
| COc1ccc(C2=NC(NC(=O)CCc3ccc(Cl)cc3Cl)C(=O)N(C)c3ccccc32)cc1 (stereo unspecified) | 188 to 189 °C |

Specify reported melting point for the compound shown: CCCC[C@@H](C)[C@@H](O)[C@H](NC)C(=O)O
248 to 249 °C

----------
Reported melting point by item:

The cases that follow already have their melting point on record.
| compound | melting point |
| --- | --- |
| CC(=O)Nc1ccc([N+]([O-])=NC#N)cc1 | 240 to 242 °C |
| CCCCOP(=O)(OCCCC)C(Sc1cc(F)ccc1O)=P(OCCCC)(OCCCC)OCCCC | 165 to 166 °C |
| O=C(NCCCc1ccncc1)N1CCc2ccccc2C1 | 76 to 79 °C |
| O=c1cnn(CCCCCl)c(=O)[nH]1 | 93 °C |
| Cc1nnc(-c2ccc3occ(-c4ccc5c(c4)C(C)(C)CS5(=O)=O)c3c2)o1 | 242 to 243 °C |

Consider the compound CCCc1c(C(=O)NCc2ccc3c(Br)c(OCC#N)ccc3c2)cnn1-c1ccccc1 and give its recorded melting point.
175 to 176 °C

Respond only with melting point recorded for O=C(Nc1ccccc1S(=O)(=O)NCC1CCCCC1)N[C@@H](Cc1ccc(NC(=O)c2c(Cl)cccc2Cl)cc1)C(=O)O
185 °C

Fill in reported melting point for this entry: Cc1oc(-c2cccc(-c3nc(CC(=O)OCc4ccccc4)c(C)o3)c2)nc1CC(=O)OCc1ccccc1
98 to 100 °C

Given O=C(NC(Cc1ccc(OCc2ccccc2)cc1)C(=O)O)c1cn2c(-c3ccc(Cl)cc3)cccc2n1 (stereo unspecified) , respond with its melting point.
218 °C

Answer with the recorded melting point of OCC1Cc2cccc(F)c2OC1CO (stereo unspecified) only.
111 °C

----------
Here, each record is paired with measured melting point data.

Use these answered entries as a reference point.
| compound | metric.name | measured.value |
| --- | --- | --- |
| CC(=O)C=Cc1ccc(NS(C)(=O)=O)c(Oc2ccc(F)cc2F)c1 | melting point | 130 to 132 °C |
| CC(Oc1ccc(OC(F)(F)F)cc1)c1ccnc2ncnn12 (centres undefined) | melting point | 91 to 93 °C |
| COc1cc(-c2cnc(N[N+](=O)[O-])[nH]c2=O)ccn1 | melting point | 194 to 196 °C |
| O=C(CN1CCC(OCc2ccccc2)CC1)Nc1ccc2c(c1)OCC(=O)N2 | melting point | 238 to 240 °C |
| COc1nc(NCCc2ccccc2)c2cc(C)sc2n1 | melting point | 138 °C |
| O=C(Cc1ccc2ccccc2c1)N[C@H]1C[C@H](C(=O)O)Nc2cc(Cl)cc(Cl)c21 (relative stereo) | melting point | 217 to 219 °C |
| CC(C#N)(COc1ccccc1C(F)(F)F)NC(=O)c1ccc(C(=O)c2ccccc2)cc1 (centres undefined) | melting point | 121 to 123 °C |
| COc1cc2c(cc1OCc1ccccc1)C(Sc1ccccc1)(C(N)=CC#N)C2 (centres undefined) | melting point | 122 to 125 °C |
| CC(C)(C)c1ccc(OCCCCCCCCCCC(Cl)(Cl)C(=O)O)cc1 | melting point | 56 to 57 °C |
| N#CC(Cl)=C(Cl)S(=O)(=O)c1cc(Cl)ccc1Cl | melting point | 84 °C |

Consider now this further compound.
Let me know recorded melting point for Cc1c(C(=O)O)cnn1-c1ccc(F)c(Cl)c1 , thanks.
187 °C

----------
metric.name: melting point

| molecule | metric.name | measured.value |
| --- | --- | --- |
| COc1ccc(-n2c(N)cc(=O)nc2Nc2ccccc2)cc1 | melting point | 180 to 190 °C |

Consider the molecule CC(C)CN1CCC(CNc2ccc(Cl)cc2C(=O)Nc2ccc(Cl)cn2)CC1 and give its recorded melting point.
121 to 122 °C

Complete the entry with melting point for O=c1cc(OCc2ccccc2Cl)ccn1Cc1ccccc1
125 °C

----------
In this section we review reported melting point values for a set of compounds.

| compound | melting point |
| --- | --- |
| COc1ccc(NC(=O)c2ccccc2-c2cccc(OC)c2)cc1 | 107 to 109 °C |

Look up and state reported melting point for Cc1cc(C(=O)O)cc2c3ccccc3n(Cc3ccccc3)c12
> 240 °C

Please give measured melting point of the following entry: Cn1cnc(N2CCc3ccccc3CC2)c(C#N)c1=O
197 to 203 °C

Entry Cc1ccc(CNCC2(F)CCN(C(=O)c3ccc(F)c(F)c3)CC2)nc1 needs its melting point filled in; supply it.
158 °C

Fill in reported melting point for this entry: O=C(Nc1ccc(Cl)cc1)ONC1=Nc2ccc(Cl)cc2C(c2ccccc2)=NC1
200 to 203 °C

Tell me melting point reported for COC(=O)OC1C(OCc2ccccc2)C(COCc2ccccc2)OC(C)(OCc2ccccc2)C1NC(C)=O (stereo unspecified)
116 to 118 °C

----------
Form field: melting point (one value per entry).

| compound | melting point |
| --- | --- |
| CCCCNC(=O)c1ccc(Cl)c(-n2nc(CCCC)n(Cc3ccc(-c4ccccc4S(N)(=O)=O)cc3F)c2=O)c1 | 108 to 110 °C |

# context switch: different compound, same melting point
For CN1C(O)=C(c2ccccc2)N=NC1(C)N (stereo not given) , write its melting point.
91 °C

----------
Recorded melting point, one value per entry.

| compound | melting point |
| --- | --- |
| O=C1c2ccccc2C(=S)N1C1CC=CCC1 (centres undefined) | 93 °C |
| O=C(O)CCc1cc(Br)c2c(c1)CCO2 | 117 to 118 °C |
| CC(C)(CC(O)(Cn1cc(Cl)c(=O)c2cnccc21)C(F)(F)F)c1cccc2c1OCC2 (centres undefined) | 158 to 160 °C |

Please report the measured melting point for CCCCC(CC)NC1=NS(=O)(=O)c2sc(Cl)cc2N1 (centres undefined)
165 to 168 °C

State its melting point for this compound: COc1cc(Nc2c(C#N)cnc3cc4cc(OC)c(OCCN5CCN(C)CC5)cc4cc23)c(Cl)cc1C
220 to 227 °C

For the compound CC(C)(C)CNc1nc(C#N)nc2ccc(OCc3cccnc3)cc12 , report melting point.
156 to 158 °C

// Input: O=C(OCc1ccccc1)N(CCNC(=O)C(F)(F)F)CCNC(=O)C(F)(F)F . Output its melting point only.
131 to 132 °C

Note down melting point recorded for O=c1[nH]c2ccc3c(c2o1)OC(CN1CC=C(c2c[nH]c4ccccc24)CC1)CO3 (centres undefined)
202 °C

Consider the compound OC(Cn1cncn1)c1ccc(-c2ccc(Cl)cc2)cc1 (centres undefined) and give its recorded melting point.
199 °C

----------
Readings of melting point for the listed compounds

Identify melting point associated with the compound COc1ccc2sc3cc(-c4nnn[nH]4)ccc3c(=O)c2c1
> 350 °C

// Input: Cc1nc(C)c(C(=O)Nc2cccc3c2C(C)CC3(C)C)s1 (centres undefined) . Output its melting point only.
117 to 118 °C

Let me know recorded melting point for CCC(Oc1ccc(Cl)c(C)c1)C(=O)NCc1ccco1 (centres undefined) , thanks.
100 to 102 °C

Consider the compound CC(=Cc1cn(-c2cccnc2)c2ccccc12)C(=O)O and give its recorded melting point.
213 to 215 °C

Item Cc1nc(NC(=O)c2ccccc2)sc1C(=O)NCc1ccc(F)cc1 : provide melting point
206 to 208 °C

Specify reported melting point for the compound shown: O=Cc1c2ccccc2c(C=O)c2ccccc12
224 to 245 °C

----------
metric.name: melting point

| compound | melting point |
| --- | --- |
| COc1cc(-c2nc(N3CCNC(C)C3)c3c(C)c(C#N)sc3n2)cc(OC)c1OC (centres undefined) | 213 to 215 °C |
| O=C(N[C@H]1CCC[C@@H]1O)C(O)=CC(=O)c1cc(Cc2ccc(F)cc2F)cn(Cc2ccc(F)cc2)c1=O | 85 to 86 °C |
| N#Cc1ccccc1N1CCN(CNC(=O)c2cccc(Cl)c2)CC1 | 143 to 146 °C |

Next compound, melting point to be filled in.
Please list melting point recorded for the compound CNc1nc(N)nc2c1ncn2C1OC(CO)C(O)C1F (centres undefined)
172 °C

----------
Reported melting point values follow for various compounds

Worked examples follow.
| compound | melting point |
| --- | --- |
| O=C(c1ccccc1)N1CCC(Nc2ccccc2Oc2ccc(Cl)cc2Cl)CC1 | 55 to 58 °C |
| O=C(NCCCn1ccnc1)Nc1ccc(Cl)cc1 | 123 to 125 °C |
| CC(C)n1nc(C(=O)Cl)c2ccccc21 | 63 to 64 °C |
| CN(C)CCC1CCCCN1C1c2ccccc2Oc2ccccc21 (stereo unspecified) | 64 to 67 °C |
| O=C(O)c1cc([N+](=O)[O-])ccc1NCc1ccco1 | 190 to 192 °C |

Query melting point for C=CCNC(=O)N1CC(Oc2ccc(C(F)(F)F)cc2)C1
91 to 92.5 °C

Item CCOC(=O)N1Cc2ccccc2C(Oc2ccc(Cl)cc2)C1 (stereo unspecified) : provide melting point
78.5 to 79.5 °C

// Input: CN1Cc2ccccc2C(=O)c2c(CC(=O)O)cccc21 . Output its melting point only.
178 to 181 °C

Given the compound CNC(=O)C(CCn1c(COc2ccc(Cl)cc2)nc2c(C)cccc21)Cc1ccccc1 (stereo unspecified) , write its reported melting point.
169 to 170 °C

Supply recorded melting point for CCc1nc(/C=C/c2cn(-c3ccccc3)nc2O)c(C)s1 here.
184 to 186 °C

Note melting point for the compound shown: CC1(C)c2cc(C#N)ccc2OC1OC(=O)CCl (stereo unspecified)
138 °C
